Origin of measurements: a melting point compilation (Tetko et al.; mined from patent text by program, amines drawn as free bases though some values may be those of a salt)

Please go through the items and note down their melting point.

I have this molecule here, `CC(C)(C)C(=O)c1cn(COCC[Si](C)(C)C)c2ncc(-c3ccc4c(ccn4Cc4ccccn4)c3)nc12` , and I need its recorded melting point.
194 to 196 °C

I have this molecule here, `CC(C)n1nc(Cl)cc1O` , and I need its recorded melting point.
138 to 140 °C

I have this molecule here, NC(=O)C1CN1Cc1ccccc1 (stereo not given) , and I need its recorded melting point.
114 to 116 °C

I have this molecule here, `CCOC(=O)c1c(CN(CC)CC)nc2sc3c(c2c1-c1ccc(OC)c(OC)c1)CCCN3C(=O)OCc1ccccc1` , and I need its recorded melting point.
138 to 139 °C

I have this molecule here, `O=C1NCCc2ccc(OCCCCN3CCN(c4cccc(Cl)c4Cl)CC3)nc2N1` , and I need its recorded melting point.
197 to 199 °C

* * *

Please go through the items and note down their melting point.

I have this compound here, `CN(C(=O)OC(C)(C)C)c1cc(Oc2ccc(C(F)(F)F)cc2)ccc1[N+](=O)[O-]` , and I need its recorded melting point.
92 to 93 °C

I have this compound here, `NC(=O)c1cc(NCc2c(F)c(F)c(C(F)(F)F)c(F)c2F)ccc1O` , and I need its recorded melting point.
143 to 145 °C

I have this compound here, `COC(=O)c1cc(C(=O)N2CCC(O)CC2)cc(-n2cccc2)c1` , and I need its recorded melting point.
158 to 159 °C

I have this compound here, `Nc1nc2[nH]c(CCC#Cc3ccc(C(=O)N[C@@H](CCC(=O)O)C(=O)O)s3)cc2c(=O)[nH]1` , and I need its recorded melting point.
196 to 197 °C

I have this compound here, CCCC(Br)c1nc2ccccc2n1Cc1ccc(C#N)cc1 (centres undefined) , and I need its recorded melting point.
135 °C

I have this compound here, `OCc1ccc(-c2c3ccccc3nn2Cc2ccccc2)cc1` , and I need its recorded melting point.
148 to 149 °C

I have this compound here, Cc1nc(OC(C)C(=O)O)nn1-c1cccc(Cl)c1 (centres undefined) , and I need its recorded melting point.
101 to 103 °C

I have this compound here, COc1ccc(S(=O)(=O)C(CC=C(C)C)(Cc2ccc(OCCN3CCOCC3)cc2)C(=O)NO)cc1 (centres undefined) , and I need its recorded melting point.
92 °C

I have this compound here, `O=C(O)c1ccc(SCc2c(O[C@H](Cn3ccnc3)c3ccccc3)ccc3c2CCCC3=O)cc1` , and I need its recorded melting point.
215 °C

* * *

recordedEndpoint: melting point

I have this compound here, `CC(=O)Oc1cc(C)cc(C(=O)O)c1C` , and I need its recorded melting point.
153 to 154 °C

I have this compound here, Cc1ccc2c(n1)C(C(N)=O)CCC2 (stereo not given) , and I need its recorded melting point.
114 °C

I have this compound here, `NC(=O)c1ccc(-c2n[nH]c3c2Cc2ccccc2-3)cc1` , and I need its recorded melting point.
290 to 293 °C

I have this compound here, `CCCCc1nc2cccc(CC#N)c2n1Cc1ccc(-c2ccccc2C#N)cc1` , and I need its recorded melting point.
180 to 181 °C

I have this compound here, `COC(=O)CC/C(C)=C/Cc1c(NC=O)c2c(c(C)c1OC)COC2=O` , and I need its recorded melting point.
187 to 189 °C

I have this compound here, `Clc1nc(-c2cccnc2)[nH]c1Cl` , and I need its recorded melting point.
237 to 238 °C

I have this compound here, `COc1ccc(CCNC(=O)CN(C(C)=O)c2cccc(C(N)=O)c2)cc1OC` , and I need its recorded melting point.
111 to 113 °C

I have this compound here, `CCS(=O)(=O)NCc1cccc(-c2nc(=O)c3ccccc3s2)n1` , and I need its recorded melting point.
170 to 171 °C

I have this compound here, `CNc1cccc(-c2ccc3c(C(N)=O)nn(-c4ccc(S(N)(=O)=O)cc4)c3c2)c1` , and I need its recorded melting point.
159 to 160 °C

I have this compound here, O=C(NS(=O)(=O)c1ccc(Cl)cc1)C1=NN(c2ccc(Cl)cc2)C(c2ccccc2)C1 (stereo not given) , and I need its recorded melting point.
226 to 229 °C
